The origin of these recorded values is paper PMC6917776.

- measurement-protocol: CelltiterGlo viability cell assay
- Type: cell-based
- condition-notes: human, RPMI-8226 multiple myeloma cells, 8226, 6 day, 0.3 uM; read-out: viability Replicate 2
property-measured: viability at 6 day, 0.3 µM (%)
# output: bare number, implied unit %

Reported viability at 6 day, 0.3 µM for COc1cc(OC)cc(-c2noc(N3CCN(C)C4(CCN(c5ccnc(C)c5)CC4)C3)n2)c1 [MRK-740] was 98.6

====

- measurement-protocol: CelltiterGlo viability cell assay
- Type: cell-based
- condition-notes: human, SKMM2 multiple myeloma cells, SKMM2, 3 day, 0.1 uM; read-out: viability Replicate 2
property-measured: viability at 3 day, 0.1 µM (%)
# output: bare number, implied unit %

Reported viability at 3 day, 0.1 µM for COc1cc(OC)cc(-c2noc(N3CCN(C)C4(CCN(c5ccnc(C)c5)CC4)C3)n2)c1 was 100

====

- measurement-protocol: CelltiterGlo viability cell assay
- Type: cell-based
- condition-notes: human, CAL851 breast cancer cells, CAL851, 3 day, 0.01 uM; read-out: viability Average
property-measured: viability at 3 day, 0.01 µM (%)
# output: bare number, implied unit %

Reported viability at 3 day, 0.01 µM for COc1cc(OC)cc(-c2noc(N3CCN(C)C4(CCN(c5ccnc(C)c5)CC4)C3)n2)c1 was 95.7

====

- measurement-protocol: CelltiterGlo viability cell assay
- Format: cell-based
- condition-notes: human, MDA-MB-436 breast cancer cells, MDA MB436, 3 day, 3 uM; read-out: viability Replicate 1
property-measured: viability at 3 day, 3 µM (%)
# output: bare number, implied unit %

Reported viability at 3 day, 3 µM for COc1cc(OC)cc(-c2noc(N3CCN(C)C4(CCN(c5ccnc(C)c5)CC4)C3)n2)c1 was 120

====

- measurement-protocol: CelltiterGlo viability cell assay
- Format: cell-based
- condition-notes: human, RPMI-8226 multiple myeloma cells, 8226, 6 day, 1 uM; read-out: viability Replicate 3
property-measured: viability at 6 day, 1 µM (%)
# output: bare number, implied unit %

Reported viability at 6 day, 1 µM for COc1cc(OC)cc(-c2noc(N3CCN(C)C4(CCN(c5ccnc(C)c5)CC4)C3)n2)c1 was 97.2

====

- tested-on: PRDM9 (Homo sapiens)
- Construct: PRDM9 (amino acids: 195–415)
- Sequence (Q9NQV7 195-415): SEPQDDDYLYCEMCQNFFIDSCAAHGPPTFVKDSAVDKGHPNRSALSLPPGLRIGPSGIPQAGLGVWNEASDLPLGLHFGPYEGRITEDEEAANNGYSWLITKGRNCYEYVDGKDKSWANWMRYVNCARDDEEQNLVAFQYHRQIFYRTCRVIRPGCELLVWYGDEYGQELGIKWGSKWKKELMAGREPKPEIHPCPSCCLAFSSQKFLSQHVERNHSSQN
- measurement-protocol: MOA determination: IC50 at varying SAM or peptide concentrations (SPA)
- Format: biochemical
- condition-notes: [H3 1-25]/Km 20; Figure 2e; average of replicates; read-out: Average IC50
property-measured: pIC50
Reminder that pIC50 is minus the log10 of a molar concentration.

Reported pIC50 for COc1cc(OC)cc(-c2noc(N3CCN(C)C4(CCN(c5ccnc(C)c5)CC4)C3)n2)c1 was 6.59

====

- measurement-protocol: CelltiterGlo viability cell assay
- Assay type: cell-based
- condition-notes: human, CAL851 breast cancer cells, CAL851, 6 day, 3 uM; read-out: viability Replicate 1
- From the text: Supplementary Figure 13. […] Viability of (a) Multiple Myeloma lines and (b) Breast Cancer cell lines following 3 or 6 days treatment with […] manufacturer’s instructions as described in the Supplementary methods. Data are normalized to DMSO control. N=3 biological replicates, +/- SEM. Source data are provided as a Source Data […] CelltiterGlo viability cell assay […]
property-measured: viability at 6 day, 3 µM (%)
# output: bare number, implied unit %

Reported viability at 6 day, 3 µM for COc1cc(OC)cc(-c2noc(N3CCN(C)C4(CCN(c5ccnc(C)c5)CC4)C3)n2)c1 was 93.2
